biological target: human recombinant HDAC6 (Homo sapiens); construct: purchased Calbiochem Inc. 382180; test: In vitro HDAC enzyme activity inhibition assay, HDAC6 (HDAC Fluorimetric Drug Discovery Kit); assay type: biochemical; conditions: HDAC6 versus HDAC1
So I've got a bunch of compounds here, and I need their HDAC6 Selectivity (fold) values.
// units = fold; emit number, no label

# HDAC6 Selectivity (fold) (compound: O=C(C1CCN(C(=O)C(F)(F)F)CC1)N(Cc1cn2ccc(-c3nnc(C(F)F)o3)cc2n1)c1ccccc1 ) is 82

Recorded result, O=C(C1CN(C2CCOCC2)C1)N(Cc1cn2ccc(-c3nnc(C(F)F)o3)cc2n1)c1ccccc1 , HDAC6 Selectivity (fold): 121

HDAC6 Selectivity (fold) reported for this compound O=C(C1CCC1)N1CCN(C(=O)N(Cc2cn3ccc(-c4nnc(C(F)F)o4)cc3n2)c2ccccc2)CC1 : 302

The reported HDAC6 Selectivity (fold) of the compound COC(=O)N1CCC(C(=O)N(Cc2cn3ccc(-c4nnc(C(F)F)o4)cc3n2)c2cccc(F)c2)CC1 was 218

====

biological target: human recombinant HDAC6 (Homo sapiens, UniProt Q9UBN7); assay: In vitro HDAC enzyme activity inhibition assay, HDAC6 (HDAC Fluorimetric Drug Discovery Kit); conditions: human recombinant HDAC6, same protocol as the HDAC1 test
Would you mind telling me the reported IC50 of each entry?
# number only, unit nM dropped from output

Measured IC50 of O=C(C1CN(C2COC2)C1)N(Cc1cn2ccc(-c3nnc(C(F)F)o3)cc2n1)c1cccc(F)c1 : 139

IC50 recorded for this compound, O=C(C1CCN(c2ccccn2)CC1)N(Cc1cn2ccc(-c3nnc(C(F)F)o3)cc2n1)c1ccccc1 , is 547

The compound identified as O=C(C1CN(C2COC2)C1)N(Cc1cn2ccc(-c3nnc(C(F)F)o3)cc2n1)c1ccccc1 registered its IC50 at 410

In plain terms, CS(=O)(=O)c1ccc(NCc2cn3ccc(-c4nnc(C(F)F)o4)cc3n2)cc1 has a documented IC50 of 391

Summary for this compound, O=C(C1COC1)N1CC(C(=O)N(Cc2cn3ccc(-c4nnc(C(F)F)o4)cc3n2)c2ccccc2)C1 : IC50 is 355

Short answer for O=C(C1CN(C2CCOCC2)C1)N(Cc1cn2ccc(-c3nnc(C(F)F)o3)cc2n1)c1ccccc1 : IC50 was 413

The recorded IC50 for entry COC(=O)N1CCN(C(=O)N(Cc2cn3ccc(-c4nnc(C(F)F)o4)cc3n2)c2cccc(F)c2)CC1 equals 154

====

Would you kindly list HDAC6 Selectivity (fold) for each of these compounds?
target: human recombinant HDAC6 (Homo sapiens, UniProt Q9UBN7); construct: purchased Calbiochem Inc. 382180; test: In vitro HDAC enzyme activity inhibition assay, HDAC6 (HDAC Fluorimetric Drug Discovery Kit); format: biochemical; conditions: HDAC6 versus HDAC1
Form entry: value (fold) — number only.

The compound listed as CN(C)C(=O)N1CCN(C(=O)N(Cc2cn3ccc(-c4nnc(C(F)F)o4)cc3n2)c2ccccc2)CC1 [Compound 4047] has a reported HDAC6 Selectivity (fold) of 400

Please fill in: HDAC6 Selectivity (fold) reported for O=C(C1COC1)N1CCC(C(=O)N(Cc2cn3ccc(-c4nnc(C(F)F)o4)cc3n2)c2ccccc2)CC1 [Compound 4126] = 124

Notebook: CN1CC2(C1)CN(C(=O)N(Cc1cn3ccc(-c4nnc(C(F)F)o4)cc3n1)c1ccccc1)C2 [Compound 4625] , HDAC6 Selectivity (fold) read as 510

The compound listed as CC(=O)N1CCC(C(=O)N(Cc2cn3ccc(-c4nnc(C(F)F)o4)cc3n2)c2ccccc2)CC1 [Compound 4122] has a reported HDAC6 Selectivity (fold) of 142

====

biological target: human recombinant HDAC6 (Homo sapiens, UniProt Q9UBN7); construct: purchased Calbiochem Inc. 382180; assay: In vitro HDAC enzyme activity inhibition assay, HDAC6 (HDAC Fluorimetric Drug Discovery Kit); format: biochemical; conditions: HDAC6 versus HDAC1
Task for the reader: assign each of the following compounds its reported HDAC6 Selectivity (fold).
Reply with just the number (in fold).

Just so you know, measured HDAC6 Selectivity (fold) for Cc1ccc(Cc2cn3ccc(-c4nnc(C(F)F)o4)cc3n2)cc1 came out at 94

get_value(item= CC(=O)c1cccc(NCc2cn3ccc(-c4nnc(C(F)F)o4)cc3n2)c1 , readout=HDAC6 Selectivity (fold)) returns 426

get_value(item= FC(F)c1nnc(-c2ccn3cc(CNc4ccc(C(F)(F)F)cc4)nc3c2)o1 , readout=HDAC6 Selectivity (fold)) returns 125

Form field HDAC6 Selectivity (fold), entry CN(C)C(=O)N1CC(C(=O)N(Cc2cn3ccc(-c4nnc(C(F)F)o4)cc3n2)c2cccc(F)c2)C1 : 348

====

target: human recombinant HDAC6 (Homo sapiens, UniProt Q9UBN7); assay: In vitro HDAC enzyme activity inhibition assay, HDAC6 (HDAC Fluorimetric Drug Discovery Kit); conditions: human recombinant HDAC6, same protocol as the HDAC1 test
IC50 vs 200 nM: less than gives Yes; not less than gives No.

Determine if CC(CO)N1CCC(C(=O)N(Cc2cn3ccc(-c4nnc(C(F)F)o4)cc3n2)c2ccccc2)CC1 (stereo not shown) shows IC50 strictly lower than 200 nM. No

Hi there! Is IC50 for Cc1ccc(Cc2cn3ccc(-c4nnc(C(F)F)o4)cc3n2)cc1 below 200 nM, do you know? No

Determine whether this compound shows IC50 lower than 200 nM (ties excluded): CCC(=O)N1CC(C(=O)N(Cc2cn3ccc(-c4nnc(C(F)F)o4)cc3n2)c2cccc(F)c2)C1 Yes

Given the entry O=C(CO)N1CCC(C(=O)N(Cc2cn3ccc(-c4nnc(C(F)F)o4)cc3n2)c2cccc(F)c2)CC1 , would its reported IC50 be below 200 nM? Yes

Problem: For the compound O=C(N1CCN(C2CCC(F)(F)CC2)CC1)N(Cc1cn2ccc(-c3nnc(C(F)F)o3)cc2n1)c1ccccc1 , is IC50 under 200 nM? Yes

IC50 strictly < 200 nM for this compound? Fc1ccc(NCc2cn3ccc(-c4nnc(C(F)F)o4)cc3n2)cn1 Yes

IC50 under 200 nM? Item: CS(=O)(=O)N1CCN(C(=O)N(Cc2cn3ccc(-c4nnc(C(F)F)o4)cc3n2)c2ccccc2)CC1 Yes

====

Molecular target: human recombinant HDAC6 (Homo sapiens)
Construct: purchased Calbiochem Inc. 382180
Sequence (Q9UBN7 1-1215): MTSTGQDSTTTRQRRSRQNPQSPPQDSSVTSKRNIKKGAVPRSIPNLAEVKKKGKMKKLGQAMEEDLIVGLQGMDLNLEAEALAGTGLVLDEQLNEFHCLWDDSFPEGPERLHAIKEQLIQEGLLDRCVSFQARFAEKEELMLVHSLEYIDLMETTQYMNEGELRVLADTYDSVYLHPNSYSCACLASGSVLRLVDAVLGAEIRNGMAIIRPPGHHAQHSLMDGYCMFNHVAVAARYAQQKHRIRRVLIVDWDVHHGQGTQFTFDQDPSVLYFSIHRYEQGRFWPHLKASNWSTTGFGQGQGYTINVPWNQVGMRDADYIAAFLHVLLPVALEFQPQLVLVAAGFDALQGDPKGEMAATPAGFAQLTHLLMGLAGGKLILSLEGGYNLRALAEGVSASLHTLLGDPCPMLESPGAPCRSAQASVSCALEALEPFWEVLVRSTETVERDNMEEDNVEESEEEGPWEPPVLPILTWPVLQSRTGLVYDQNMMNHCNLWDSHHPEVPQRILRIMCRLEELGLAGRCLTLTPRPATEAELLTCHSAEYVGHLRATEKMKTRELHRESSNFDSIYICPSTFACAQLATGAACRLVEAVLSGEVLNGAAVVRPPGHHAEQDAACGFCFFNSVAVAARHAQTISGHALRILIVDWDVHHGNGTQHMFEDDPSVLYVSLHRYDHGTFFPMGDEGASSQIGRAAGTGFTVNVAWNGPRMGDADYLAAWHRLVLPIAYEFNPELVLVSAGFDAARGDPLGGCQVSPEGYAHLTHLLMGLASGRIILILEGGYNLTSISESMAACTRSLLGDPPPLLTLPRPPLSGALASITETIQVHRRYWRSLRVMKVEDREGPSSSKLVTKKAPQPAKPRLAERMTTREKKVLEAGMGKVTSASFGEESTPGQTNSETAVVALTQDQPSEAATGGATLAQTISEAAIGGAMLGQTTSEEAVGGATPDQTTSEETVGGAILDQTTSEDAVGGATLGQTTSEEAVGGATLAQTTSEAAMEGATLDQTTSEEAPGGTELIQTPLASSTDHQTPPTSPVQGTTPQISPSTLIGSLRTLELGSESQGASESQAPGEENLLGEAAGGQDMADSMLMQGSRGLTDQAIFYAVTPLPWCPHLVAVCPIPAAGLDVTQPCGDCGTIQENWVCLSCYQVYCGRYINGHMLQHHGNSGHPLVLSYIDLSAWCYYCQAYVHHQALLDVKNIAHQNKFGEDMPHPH
Experiment: In vitro HDAC enzyme activity inhibition assay, HDAC6 (HDAC Fluorimetric Drug Discovery Kit)
Format: biochemical
Settings: HDAC6 versus HDAC1
observed_property: HDAC6 Selectivity (fold)
Numbers only here, please. The scale is fold.

# value of HDAC6 Selectivity (fold), human recombinant HDAC6 (Homo sapiens), item COC(=O)N1CCN(C(=O)N(Cc2cn3ccc(-c4nnc(C(F)F)o4)cc3n2)c2cccc(F)c2)CC1 = 325

The molecule Fc1ccc(Cc2cn3ccc(-c4nnc(C(F)F)o4)cc3n2)c(F)c1 , tested on human recombinant HDAC6 (Homo sapiens), showed HDAC6 Selectivity (fold) of 205

Entry CC(CO)N1CCN(C(=O)N(Cc2cn3ccc(-c4nnc(C(F)F)o4)cc3n2)c2cccc(F)c2)CC1 (centres unmarked) : HDAC6 Selectivity (fold) on human recombinant HDAC6 (Homo sapiens) = 249

Record O=C(N1CCN(C2COC2)CC1)N(Cc1cn2ccc(-c3nnc(C(F)F)o3)cc2n1)c1ccccc1 has human recombinant HDAC6 (Homo sapiens) HDAC6 Selectivity (fold) equal to 437

Record for Fc1cccc(OCc2cn3ccc(-c4nnc(C(F)F)o4)cc3n2)c1 under target or system human recombinant HDAC6 (Homo sapiens): HDAC6 Selectivity (fold) reported as 174

// molecule CN1CC(C(=O)N(Cc2cn3ccc(-c4nnc(C(F)F)o4)cc3n2)c2cccc(F)c2)C1 , assay human recombinant HDAC6 (Homo sapiens), HDAC6 Selectivity (fold) value: 134

Entry Fc1ccc(NCc2cn3ccc(-c4nnc(C(F)F)o4)cc3n2)cn1 : HDAC6 Selectivity (fold) on human recombinant HDAC6 (Homo sapiens) = 354

Field HDAC6 Selectivity (fold) (human recombinant HDAC6 (Homo sapiens)), entry O=C(C1CN(C2CCOCC2)C1)N(Cc1cn2ccc(-c3nnc(C(F)F)o3)cc2n1)c1cccc(F)c1 : 261
